# method: qHTS for Inhibitors of human tyrosyl-DNA phosphodiesterase 1 (TDP1): qHTS in cells in presence of CPT; also: nearly all actives have a fitted effect of over 55% in size; also: potency is read from the fitted curve at half-maximal effect
# condition_summary: chicken DT40 Tdp1-/-;hTDP1 cells + 20 nM CPT, ATP luminescence, 48 h; series mostly up to 46.2 µM
The whole screen tested about 420,000 compounds, of which about 50,000 (12%) were called active. Inconclusive results (about 26%) are left out. For the sample, actives were picked, then their nearest neighbours and some compounds at random.
property_measured: Potency

Illustrative cases are given below, each with its answer.
- CC(C)CN(C(=O)CSc1ncnc2sccc12)C1CCS(=O)(=O)C1 (stereo not drawn): inactive
- CN(CC(=O)NCCc1ccccn1)S(=O)(=O)c1ccc(Cl)cc1: inactive
- CCNC(=O)C1CCCN(C(=O)c2ccc(OC)cc2OC)CC1 (stereo not drawn): inactive
- Cc1ccc(C(=O)NCC(=O)OCc2nnc(-c3ccccc3)o2)cc1: inactive
- O=C1OCCC1=COCCCCOC=C1CCOC1=O: inactive

Give Potency for each of the items listed below.
1. Cc1onc(-c2ccccc2)c1-c1nnc(COC(=O)c2ccc(N(C)C)cc2)o1
2. N#CCC(=O)N/N=C/c1cn(Cc2ccc3ccccc3c2)c2ccccc12
3. COc1ccc(-n2nnnc2SCC(=O)Nc2ccccc2)cc1
4. CCC(NC(=O)C1CCCC1)c1ccc(C)cc1 (stereo not drawn)
5. CC(OC(=O)c1cccnc1Cl)C(=O)NC1CCCCC1 (stereo not drawn)
6. COc1ccc(N(CC(=O)NCCSCc2cccc(Cl)c2)S(C)(=O)=O)cc1
7. CCCCCCCNC(=O)C1(CC2CC(c3cccc(Br)c3)=NO2)CCN(C(=O)c2cc(OCC)c(OCC)c(OCC)c2)CC1 (stereo not drawn)

1: 20.6 µM (active); 2: 5.8 µM (active); 3: inactive; 4: inactive; 5: inactive; 6: inactive; 7: 23.1 µM (active)

Take each entry in turn and give its Potency.
1. CC(Sc1nnc(C2CC2)n1C1CC1)C(=O)Nc1ccc(C(N)=O)cc1 (stereo not drawn)
2. Cc1cc[n+](C2CCCCC2)cc1
3. CCOC(=O)c1ccc(COC(=O)CCc2nc(-c3ccccc3)c(-c3ccccc3)o2)cc1
4. CCOC(=O)C1CCN(Cc2nnc(-c3cccc(Br)c3)o2)CC1
5. NC(CSC(c1ccccc1)(c1ccccc1)c1ccc(-c2ccccc2)cc1)C(=O)O (stereo not drawn)
6. CCCCN1C(N)=NC[C@@H]1Cc1ccccc1
7. S=c1[nH]nc(-c2ccco2)n1/N=C/c1ccccc1

1: inactive; 2: 15.8 µM (active); 3: inactive; 4: inactive; 5: inactive; 6: 7.31 µM (active); 7: inactive

List reported Potency for each of these compounds:
1. Cc1onc(-c2ccccc2Cl)c1C(=O)OCc1nnc(-c2ccccc2)o1
2. Cn1cccc1-c1nc2ccccc2n1C

18.4 µM (active)
inactive

The following compounds each have a reported value; give each one's Potency.
1. CN(C(=O)CSc1nnc(-c2ccc(C(C)(C)C)cc2)n1C)C1CCS(=O)(=O)C1 (stereo not drawn)
2. O=C(NCCc1ccccn1)c1cc(-c2ccc(Cl)cc2)nc2ccccc12

inactive
13 µM (active)

---

# method: qHTS for Inhibitors of human tyrosyl-DNA phosphodiesterase 1 (TDP1): qHTS in cells in presence of CPT; also: nearly all actives have a fitted effect of over 55% in size
# condition_summary: chicken DT40 Tdp1-/-;hTDP1 cells + 20 nM CPT, ATP luminescence, 48 h; series mostly up to 46.2 µM
About 50,000 (12%) of roughly 420,000 compounds were called active. About 26% were inconclusive and are not listed. The call rests on the fitted dose curve; in most records, active means well fitted inhibition curve with a large enough effect; inconclusive means small, poorly fitted or top-dose-only effect; inactive means flat fitted curve, though single readings scatter. The full list was thinned out, with actives kept by preference.
Pick from y for active, n for inactive when you respond.

Below, 5 compounds whose answers are already recorded.
- Cc1ccc2nsnc2c1S(=O)(=O)N1CCCC1C(=O)O (stereo not given): n
- Cc1ccccc1S(=O)(=O)NC(=O)C1(C)CCN1C(=O)C1(c2ccc(Cl)cc2)CC1 (stereo not given): n
- COc1cccc(CNC(=O)c2nnn(CC(=O)Nc3cc(C)ccc3C)c2N)c1: n
- C#CCOCCOCCOCCNc1nc(N2CCN(C(=O)Cn3cc(CCO)nn3)CC2)nc(N2CCN(C(=O)Cn3cc(CCCN=C(N)N)nn3)CC2)n1: n
- CCOC(=O)C1C(c2ccc(OC)c(OC)c2)c2c([nH][nH]c2=O)CC1(C)O (stereo not given): n

Alright, here's another compound for you.
What is the recorded call for this compound in the test? C#CCOCCOCCOCCNc1nc(N2CCN(C(=O)Cn3cc(CCO)nn3)CC2)nc(N2CCN(C(=O)[C@H](CCCCN)n3cc(CCCC)nn3)CC2)n1
n

---

# method: qHTS for Inhibitors of human tyrosyl-DNA phosphodiesterase 1 (TDP1): qHTS in cells in presence of CPT; also: nearly all actives have a fitted effect of over 55% in size
# condition_summary: chicken DT40 Tdp1-/-;hTDP1 cells + 20 nM CPT, ATP luminescence, 48 h; series mostly up to 46.2 µM
Screen size: about 420,000 compounds; about 50,000 (12%) were called active. Inconclusive results (about 26%) are left out. The call rests on the fitted dose curve; in most records, active means well fitted inhibition curve with a large enough effect; inconclusive means small, poorly fitted or top-dose-only effect; inactive means flat fitted curve, though single readings scatter. The list comes from a sample in which actives are over-represented; it also holds close analogues and randomly drawn compounds.
Please state which outcome applies, choosing from true (1) = active, false (0) = inactive

For orientation, consider the following solved cases.
- CC(CC(=O)O)C(=O)c1ccc(Cl)c([N+](=O)[O-])c1 (stereo not given): false (0)
- CCc1ccc(C(CNc2nc(C(F)(F)F)nc3ccccc23)N(C)C)cc1 (stereo not given): true (1)
- Cc1ccc(C(=O)NC(=S)Nc2ccc(N3CCOCC3)cc2)cc1: false (0)
- CCCSc1nsc(N)n1: false (0)
- CCOC(=O)/C=c1\s/c(=C\c2ccccc2OC)c(=O)n1CC(=O)N1CCOCC1: false (0)
- O=C(/C=C/c1ccc(Cl)cc1)N1CCN(c2ccccc2[N+](=O)[O-])CC1: false (0)
- Oc1ccc2ccccc2c1C=Nc1ccccc1: false (0)
- NS(=O)(=O)c1ccc(CCNc2nc(C(F)(F)F)nc3ccccc23)cc1: false (0)

Which outcome did this test record for the molecule CC(C)(C)Nc1nc(-c2ccccn2)nc2ccccc12 ?
true (1)

For this molecule, state the assay outcome: COc1ccc(Cn2ccnc2SCC(=O)NCc2ccco2)cc1
false (0)

How did this test come out for Cn1c(C(=O)O)ccc1S(=O)(=O)N(Cc1ccccc1)Cc1ccccc1 ?
false (0)

---

# method: qHTS for Inhibitors of human tyrosyl-DNA phosphodiesterase 1 (TDP1): qHTS in cells in presence of CPT; also: nearly all actives have a fitted effect of over 55% in size; also: potency is read from the fitted curve at half-maximal effect
# condition_summary: chicken DT40 Tdp1-/-;hTDP1 cells + 20 nM CPT, ATP luminescence, 48 h; series mostly up to 46.2 µM
# Experimental: Human tyrosyl-DNA phosphodiesterase 1 (TDP1) is a novel repair gene, and we propose to use it as a new target for anticancer drug development. […] For the primary screen, Tdp1-/-;hTDP1 cells will be exposed to small molecules in the presence or absence of CPT, and their growth kinetics will be evaluated after 48 hours by measuring ATP activity. […] The hit compounds will then be evaluated in the presence or absence of CPT using Tdp1-/- cells. […]
The whole screen tested about 420,000 compounds, of which about 50,000 (12%) were called active. Roughly 26% stayed inconclusive and do not appear here. This is one part of a sample in which actives are shown more often than they occur.
property_measured: Potency

* CCC(C)N(C(=O)Cn1nc(C)c([N+](=O)[O-])c1C)C1CCS(=O)(=O)C1 (stereo unspecified) | inactive
* CSc1ncc(Sc2ccccc2)c(C(=O)O)n1 | inactive
* CSc1nc(-c2ccccc2)nc(C(Cl)Cl)n1 | 1.16 µM (active)
* COc1cc(NS(=O)(=O)c2ccc(N/C=C(\C=O)c3nc4cc(Cl)ccc4o3)cc2)nc(OC)n1 | inactive
* Fc1ccc(Nc2nnns2)cc1 | inactive

Field: next compound
Lab note: CSc1nc(Nc2ccc(F)cc2)cc(-c2ccccc2)n1 gave Potency of 14.6 µM (active)

---

# method: qHTS for Inhibitors of human tyrosyl-DNA phosphodiesterase 1 (TDP1): qHTS in cells in presence of CPT; also: nearly all actives have a fitted effect of over 55% in size
# condition_summary: chicken DT40 Tdp1-/-;hTDP1 cells + 20 nM CPT, ATP luminescence, 48 h; series mostly up to 46.2 µM
The whole screen tested about 420,000 compounds, of which about 50,000 (12%) were called active. Roughly 26% stayed inconclusive and do not appear here. Calls come from the whole dose curve; as a rule, active = well fitted inhibition curve with a large enough effect; inconclusive = small, poorly fitted or top-dose-only effect; inactive = flat fitted curve, though single readings scatter. This is one part of a sample in which actives are shown more often than they occur.
Your response should consist of one outcome taken from active, inactive

Solved cases below.
• CN(C)c1ccc(/C=C/C=C/c2ccnc3ccccc23)cc1 = active
• COc1cc2[nH]c(=O)n(Cc3ccc(C(=O)NC4CCN(Cc5ccccc5)CC4)cc3)c(=O)c2cc1OC = inactive
• COc1ccccc1Cn1c(=S)[nH]c2cc(C(=O)N3CCN(C)CC3)ccc2c1=O = inactive
• Oc1ccc(/C=N/N(Cc2ccccc2)c2ccccc2)cc1 = inactive
• O=C(CCN1C(=O)C2CCCCC2C1=O)Nc1ccc(OC(F)F)cc1 (stereo not given) = inactive
• Cc1ccc(Cn2c(C)nc3c(c2=O)c2nc4ccccc4nc2n3Cc2ccco2)cc1 = active
• CCN1CCN(c2ccc(/C=C/c3ccnc4ccccc34)cc2)CC1 = active
• O=C(c1ccc2c(=O)n(Cc3ccco3)c(=S)[nH]c2c1)N1CCCC1 = inactive
• C[C@]12C=CC(=O)C=C1CC[C@@H]1[C@@H]2C(=O)C[C@@]2(C)[C@H]1CC[C@]2(O)C(=O)CO = inactive

Could you please tell me the result logged for CCOC(=O)N1CCN(C(=O)c2ccc3c(=O)n(CCc4ccc(OC)c(OC)c4)c(=O)[nH]c3c2)CC1 in this assay?
active
